measured.target: Progesterone receptor (Homo sapiens, UniProt P06401)
Sequence (P06401 whole entry): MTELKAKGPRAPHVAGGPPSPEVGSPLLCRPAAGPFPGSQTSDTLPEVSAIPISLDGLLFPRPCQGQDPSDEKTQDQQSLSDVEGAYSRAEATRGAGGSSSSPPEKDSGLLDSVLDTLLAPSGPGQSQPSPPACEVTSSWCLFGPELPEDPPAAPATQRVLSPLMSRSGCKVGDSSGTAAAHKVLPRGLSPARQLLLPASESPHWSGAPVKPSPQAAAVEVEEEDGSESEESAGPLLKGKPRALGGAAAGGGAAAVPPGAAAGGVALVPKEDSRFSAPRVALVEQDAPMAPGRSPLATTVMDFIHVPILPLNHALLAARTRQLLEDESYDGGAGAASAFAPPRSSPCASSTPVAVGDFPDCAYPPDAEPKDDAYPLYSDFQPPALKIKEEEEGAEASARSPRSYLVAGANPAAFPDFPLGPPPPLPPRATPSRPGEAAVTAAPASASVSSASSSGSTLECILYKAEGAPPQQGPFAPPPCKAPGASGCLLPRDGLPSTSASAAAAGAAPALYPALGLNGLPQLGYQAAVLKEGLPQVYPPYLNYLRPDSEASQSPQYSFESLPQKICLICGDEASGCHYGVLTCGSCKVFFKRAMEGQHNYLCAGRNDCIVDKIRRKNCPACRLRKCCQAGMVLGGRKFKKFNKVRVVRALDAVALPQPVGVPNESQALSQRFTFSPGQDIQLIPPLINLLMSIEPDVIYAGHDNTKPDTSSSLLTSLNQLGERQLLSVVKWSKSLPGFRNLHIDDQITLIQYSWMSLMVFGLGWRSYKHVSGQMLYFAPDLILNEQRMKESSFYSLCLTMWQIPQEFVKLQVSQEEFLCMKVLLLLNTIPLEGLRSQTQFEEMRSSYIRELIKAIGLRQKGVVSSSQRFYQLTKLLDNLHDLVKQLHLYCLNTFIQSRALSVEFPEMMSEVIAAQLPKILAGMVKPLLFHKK
Compiled notes: published IC50 values involving Progesterone receptor (Homo sapiens, UniProt P06401).

# example entries with known answers
Entry CC#C[C@]1(O)CC[C@H]2[C@@H]3CCC4=CC(=O)CCC4=C3[C@@H](c3ccc(OC[C@@H](O)CC(O)CC(=O)O)cc3)C[C@@]21C (single isomer, unassigned) has what IC50?
47 nM

# repeat for CC#C[C@]1(O)C[C@H]2CCc3cc(O)ccc3[C@]2(CC)C[C@@H]1O
> 10000 nM

Can you give me IC50 for all of these, one by one?
1. COc1ccccc1-c1ccc2c(c1)C(CSCc1ccccc1)=CC(C)(C)N2
2. Cc1ccccc1C1CC(=O)Nc2sc3c(C)c(C#N)c(N)nc3c21 (stereo not given)
3. C=CCSCC1=CC(C)(C)Nc2ccc(-c3ccccc3C(F)(F)F)cc21

660 nM
1260 nM
> 2000 nM
